TARGET_DESC: EGFR L718Q/L858R Ba/F3 cells (Homo sapiens (Human), UniProt P00533, L718Q/L858R)
ASSAY_PROTOCOL: Ba/F3 cell growth inhibition (MTS assay), EGFR L858R/L718Q
Format: cell-based
RECORDED_CONDITIONS: Assay 1; L718Q/L858R; read-out: EGFR Ba/F3 cells IC 50 (nM) Assay 1 L718Q/L858R
Below is a list of entries, each paired with its recorded IC50 value.
Form entry: value (nM) — number only.

Example cases with answers are listed next.
[
  {
    "MOLECULE": "C=CC(=O)Nc1cccc(N(C(=O)NCc2ccccc2)c2cc(NC)ncn2)c1 [Compound 15A]",
    "TARGET_DESC": "EGFR L718Q/L858R Ba/F3 cells (Homo sapiens (Human), UniProt P00533, L718Q/L858R)",
    "PARAMETER": "IC50",
    "REPORTED_VALUE": 2150
  },
  {
    "MOLECULE": "COc1ccc(NC(=O)/C=C/CN(C)C)cc1Nc1cc(N(C)C(=O)Nc2ccccc2)ncn1 [Compound 20A]",
    "TARGET_DESC": "EGFR L718Q/L858R Ba/F3 cells (Homo sapiens (Human), UniProt P00533, L718Q/L858R)",
    "PARAMETER": "IC50",
    "REPORTED_VALUE": 256
  },
  {
    "MOLECULE": "C=CC(=O)Nc1cccc(N(C(=O)Nc2ccccc2)c2cc(Nc3ccc(N4CCN(C)CC4)cc3OC)ncn2)c1",
    "TARGET_DESC": "EGFR L718Q/L858R Ba/F3 cells (Homo sapiens (Human), UniProt P00533, L718Q/L858R)",
    "PARAMETER": "IC50",
    "REPORTED_VALUE": 49.8
  },
  {
    "MOLECULE": "C=CC(=O)Nc1ccc(OC)c(Nc2cc(N(C)C(=O)Nc3ccccc3)ncn2)c1 [Compound 74A]",
    "TARGET_DESC": "EGFR L718Q/L858R Ba/F3 cells (Homo sapiens (Human), UniProt P00533, L718Q/L858R)",
    "PARAMETER": "IC50",
    "REPORTED_VALUE": 243
  }
]

Can you look up the measured IC50 of C=CC(=O)Nc1cccc(Nc2cc(N(C)C(=O)NCc3ccccc3)ncn2)c1 [Compound 17A] for me? 1960

* * *

TARGET_DESC: BLK (Homo sapiens (Human))
Sequence (P51451 whole entry): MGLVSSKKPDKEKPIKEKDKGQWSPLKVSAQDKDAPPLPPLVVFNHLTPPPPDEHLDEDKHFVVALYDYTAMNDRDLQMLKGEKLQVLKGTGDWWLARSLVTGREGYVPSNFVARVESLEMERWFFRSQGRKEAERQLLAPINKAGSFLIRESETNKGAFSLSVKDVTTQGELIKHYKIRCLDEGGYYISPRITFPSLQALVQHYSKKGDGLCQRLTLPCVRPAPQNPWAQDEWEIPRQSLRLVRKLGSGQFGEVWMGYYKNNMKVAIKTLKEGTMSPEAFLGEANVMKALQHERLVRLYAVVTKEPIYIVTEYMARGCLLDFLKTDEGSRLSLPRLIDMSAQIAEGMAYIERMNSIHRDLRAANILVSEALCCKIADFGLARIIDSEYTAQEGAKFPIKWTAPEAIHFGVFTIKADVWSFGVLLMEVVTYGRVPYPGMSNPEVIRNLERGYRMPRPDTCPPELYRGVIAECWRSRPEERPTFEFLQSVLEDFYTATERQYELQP
ASSAY_PROTOCOL: Kinase inhibition BLK
Format: biochemical
PARAMETER: Kinase inhibition (% control, 1000 nM compound) BLK (% control)
Form entry: value (% control) — number only.

[
  {
    "COMPOUND": "C=CC(=O)Nc1cccc(N(C(=O)OCc2ccccc2)c2ccnc(Nc3ccc(N4CCN(C)CC4)cc3OC)n2)c1",
    "REPORTED_VALUE": 20
  },
  {
    "COMPOUND": "C=CC(=O)Nc1cc(Nc2nccc(N(C)C(=O)Oc3ccccc3)n2)c(OC)cc1N(C)CCN(C)C [Compound 80A]",
    "REPORTED_VALUE": 14
  },
  {
    "COMPOUND": "C=CC(=O)Nc1cccc(N(C(=O)OCc2ccccc2)c2ccnc(Nc3cnn(C)c3)n2)c1 [Compound 83A]",
    "REPORTED_VALUE": 0.4
  }
]

Next item in the queue.
Requested read-out Kinase inhibition (% control, 1000 nM compound) BLK, target or system BLK (Homo sapiens (Human)), entry C=CC(=O)Nc1cccc(N(C(=O)NCc2ccccc2)c2cc(Nc3ccc(N4CCN(C)CC4)cc3OC)ncn2)c1 19

* * *

TARGET_DESC: EGFR Del Ba/F3 cells (Homo sapiens, UniProt P00533, cells depend on it, form not given)
ASSAY_PROTOCOL: Ba/F3 cell growth inhibition (MTS assay), EGFR Del
Format: cell-based
RECORDED_CONDITIONS: 100 nM drug; Table G
PARAMETER: EGFR activity (% Control, 100 nM drug) Del (% Control)
Form entry: value (% Control) — number only.

[
  {
    "MOLECULE": "C=CC(=O)Nc1cccc(N(C(=O)Nc2ccccc2)c2cc(Nc3ccc(N4CCN(C)CC4)cc3)ncn2)c1 [Compound 25A]",
    "REPORTED_VALUE": 14
  },
  {
    "MOLECULE": "C=CC(=O)N1CC[C@H](CN(C(=O)Nc2ccccc2)c2cc(Nc3ccc(N4CCN(C)CC4)cc3OC)ncn2)C1 [Compound 33A]",
    "REPORTED_VALUE": 102
  },
  {
    "MOLECULE": "C=CC(=O)Nc1cccc(Nc2cc(N(C(=O)NCc3ccccc3)c3ccc(N4CCN(C)CC4)cc3)ncn2)c1 [Compound 30A]",
    "REPORTED_VALUE": 94
  }
]

Can you look up the measured EGFR activity (% Control, 100 nM drug) Del of COc1cc2ncnc(N(C)C(=O)Nc3ccccc3)c2cc1NC(=O)[C@@H]1CCCN1C(=O)CCl [Compound 28A] for me? 102

Can you look up the measured EGFR activity (% Control, 100 nM drug) Del of C=CC(=O)Nc1cccc(Nc2cc(N(C(=O)Nc3ccccc3)c3ccc(N4CCN(C)CC4)cc3)ncn2)c1 [Compound 26A] for me? 87

Can you look up the measured EGFR activity (% Control, 100 nM drug) Del of C=CC(=O)N1CCC[C@H]1C(=O)Nc1cc2c(N(CCOC)C(=O)NCc3ccccc3)ncnc2cc1OC [Compound 31A] for me? 111

Can you look up the measured EGFR activity (% Control, 100 nM drug) Del of C=CC(=O)N1CCC[C@@H]1C(=O)Nc1ccc(OC)c(Nc2cc(N(C)C(=O)NCc3ccccc3)ncn2)c1 [Compound 24A] for me? 95

Can you look up the measured EGFR activity (% Control, 100 nM drug) Del of C=CC(=O)Nc1cccc(N(C(=O)NCc2ccccc2)c2cc(Nc3ccc(N4CCN(C)CC4)cc3)ncn2)c1 [Compound 29A] for me? 2

Can you look up the measured EGFR activity (% Control, 100 nM drug) Del of C=CC(=O)N1CCC[C@H]1C(=O)Nc1cc2c(N(C)C(=O)NCc3ccccc3)ncnc2cc1OC for me? 100

Can you look up the measured EGFR activity (% Control, 100 nM drug) Del of C=CC(=O)N1CCC[C@H]1C(=O)Nc1ccc(OC)c(Nc2cc(N(C)C(=O)NCc3ccccc3)ncn2)c1 [Compound 23A] for me? 106

Can you look up the measured EGFR activity (% Control, 100 nM drug) Del of C=CC(=O)N1CCC[C@H]1C(=O)Nc1cc2c(N(C)C(=O)Nc3ccccc3)ncnc2cc1OC [Compound 27A] for me? 95

Can you look up the measured EGFR activity (% Control, 100 nM drug) Del of C=CC(=O)N1CC[C@@H](CN(C(=O)Nc2ccccc2)c2cc(Nc3ccc(N4CCN(C)CC4)cc3OC)ncn2)C1 [Compound 32A] for me? 104

* * *

TARGET_DESC: EGFR Del/T790M Ba/F3 cells (Homo sapiens, UniProt P00533, T790M, cells depend on it, form not given)
ASSAY_PROTOCOL: Ba/F3 cell growth inhibition (MTS assay), EGFR Del/T790M
Format: cell-based
RECORDED_CONDITIONS: 100 nM drug; Table F
Experimental: The specific cDNAs encoding the oncogenic alterations (EGFR: Del 19, L858R, L718Q, L844V, Del/T790M, L858R/T790M, Del 19/L718Q, Del 19/L844V, Del 19/T790M/L718Q and L858R/T790M/L718Q; FGFR: TEL-FGFR1, TEL-FGFR2, TEL-FGFR1 V561M, TEL-FGFR2 V561M; ALK: EML4-ALK; ROS1: CD74-ROS1) were cloned into the pDNA-Dual (BD Biosciences) vector using standard molecular biology techniques. […] Growth and inhibition of growth was assessed by MTS assay. […]
Below is a list of entries, each paired with its recorded EGFR activity (% Control, 100 nM drug) DEL/T790M value.
Form entry: value (% Control) — number only.

[
  {
    "COMPOUND": "C=CC(=O)Nc1cccc(N(C(=O)Nc2ccc(F)c(Cl)c2)c2cc(Nc3ccc(N4CCN(C)CC4)cc3OC)ncn2)c1 [Compound 22A]",
    "UNIT_NAME": "% Control",
    "REPORTED_VALUE": 84
  },
  {
    "COMPOUND": "C=CC(=O)Nc1ccc(OC)c(Nc2cc(N(C)C(=O)Nc3ccc(F)c(Cl)c3)ncn2)c1 [Compound 18A]",
    "UNIT_NAME": "% Control",
    "REPORTED_VALUE": 84
  },
  {
    "COMPOUND": "C=CC(=O)Nc1ccc(OC)c(Nc2cc(N(C)C(=O)NCc3ccccc3)ncn2)c1 [Compound 16A]",
    "UNIT_NAME": "% Control",
    "REPORTED_VALUE": 86
  },
  {
    "COMPOUND": "C=CC(=O)Nc1cccc(Nc2cc(N(C)C(=O)Nc3ccc(F)c(Cl)c3)ncn2)c1 [Compound 19A]",
    "UNIT_NAME": "% Control",
    "REPORTED_VALUE": 71
  },
  {
    "COMPOUND": "C=CC(=O)Nc1ccc(OC)c(Nc2cc(N(C)C(=O)Nc3ccccc3)ncn2)c1 [Compound 12A]",
    "UNIT_NAME": "% Control",
    "REPORTED_VALUE": 117
  }
]

Can you look up the measured EGFR activity (% Control, 100 nM drug) DEL/T790M of COc1ccc(NC(=O)/C=C/CN(C)C)cc1Nc1ncc2c(n1)N(C)C(=O)N(c1ccccc1)C2 for me? 94

Can you look up the measured EGFR activity (% Control, 100 nM drug) DEL/T790M of CN(C)C/C=C/C(=O)Nc1cccc(Nc2cc(N(C)C(=O)Nc3ccccc3)ncn2)c1 [Compound 21A] for me? 107
